readout_kind: melting point

Reference set, count: 2
Nc1ccc([C@@H](O)CNC[C@@H]2CCc3cc(S(=O)(=O)Nc4ccc(-n5nnn(CCCC6CCCC6)c5=O)cc4)ccc3O2)cn1 | 99.3 to 99.7 °C
Cc1cccc(C#Cc2cccc(C#N)c2)n1 | 120 to 123 °C

What value of melting point has been recorded for this entry: NCCN1CCC(Nc2nc3ccccc3n2Cc2ccnc3ccccc23)CC1
196 °C

# iterate: CC1CC2=CC(=O)CCC2C2C(F)CC3(C)C(O)CCC3C12 (stereo unspecified)
127 °C

# iterate: CC1Sc2ccccc2N1C(=S)Nc1cccc(Cl)c1 (stereo unspecified)
120 to 122 °C

# iterate: Cc1oc(-c2ccccc2)nc1COc1cncc(CCl)c1
98 to 99 °C

# iterate: CCOC(=O)CCc1c(C)nc(CC)n(Cc2ccc(-c3ccccc3-c3nnn[nH]3)cc2)c1=O
76 to 80 °C

Data provenance is a melting point compilation (Tetko et al.; mined from patent text by program, amines drawn as free bases though some values may be those of a salt).
